smiles_repr	melting point
CCOC(=O)c1c(N)sc(-c2ccc([N+](=O)[O-])cc2)c1C	117 to 119 °C
NN=C1CCc2ccccc21	84 to 86 °C
CCc1cc(=O)c2nc(Cl)ccc2[nH]1	269 to 270 °C
CCOCc1nc2c(N)nc3cc(N4CCCC4=O)ccc3c2n1CCCOC(C)C	165 to 167 °C
Cc1c(-c2cccnc2)n(CCCCc2nnn[nH]2)c2ccccc12	177 to 179 °C

###

Reported melting point by item:

smiles_repr	melting point
COc1ccc(-n2c(=O)c(C(=O)C3=C(O)CCCC3=O)nc3c(Cl)cccc32)cc1	249 to 251 °C
O=S(=O)(Nc1cc(Cl)cc(Cl)c1)c1cc(Br)ccc1O	158 to 159 °C
CC(C)c1cc(OCCN2CCOCC2)cc2c1C(=O)N(COc1cc(=O)n3cccc(OCCCN4CCOCC4)c3n1)S2(=O)=O	145 to 150 °C
